All values here come from patent US10450368.

Each entry below lists one item and its recorded LogAUC value.
# Study Target: T1, CH505w030.20D8gp120/293F
# T1 construct: also called CH505w30.20 gp120
# Assay Comment: ELISA
Output: the number by itself.

Consider the reported LogAUC for these binders:
| Binder | Numeric Result |
| --- | --- |
| CH493 (antibody, V domains shown, also called CH235.9; DH493) VH: QVRLLQYGGGVKRPGASMTISCVASGYNFNDYYIHWVRQAPGQGLELMGWIDPSGGRTDYAGAFGDRVSMYRDKSMNTLYMDLRSLRSGDTAMYYCVRNVGTAGSLLHYDHWGLGVMVTVSS VL: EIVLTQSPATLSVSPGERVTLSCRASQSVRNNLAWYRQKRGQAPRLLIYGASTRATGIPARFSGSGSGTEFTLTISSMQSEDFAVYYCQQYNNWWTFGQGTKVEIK | 8.09 |
| CH557 (antibody, V domains shown, also called CH235.12; CH557_4A/293i) VH: QVRLAQYGGGVKRLGATMTLSCVASGYTFNDYYIHWVRQAPGQGFELLGYIDPANGRPDYAGALRERLSFYRDKSMETLYMDLRSLRYDDTAMYYCVRNVGTAGSLLHYDHWGSGSPVIVSS VL: EIVLTQSPATLSASPGERVTLTCRASRSVRNNVAWYQHKGGQSPRLLIYDASTRAAGVPARFSGSASGTEFTLAISNLESEDFTVYFCLQYNNWWTFGQGTRVDIK | 8.59 |
| CH236 (antibody, V domains shown, also called CH236_4A/293i) VH: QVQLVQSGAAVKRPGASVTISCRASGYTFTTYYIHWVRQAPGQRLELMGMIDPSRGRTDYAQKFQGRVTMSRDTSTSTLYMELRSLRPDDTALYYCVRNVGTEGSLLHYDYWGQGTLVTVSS VL: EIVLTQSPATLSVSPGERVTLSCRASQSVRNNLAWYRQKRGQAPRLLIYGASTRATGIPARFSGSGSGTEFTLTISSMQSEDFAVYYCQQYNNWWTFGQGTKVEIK | 6.23 |
| CH555 (antibody, V domains shown, also called CH235.10) VH: QVQLVQSGATVKKPRASVTLSCRTSGYNFIDYFIHWVRRAPGQRLEVMGYIDPSRGRPDYAPNFRDRVSLYRDTSMSIVYLDLRDLTPDDTAIYYCVRSEGTEGTVLHYDHWGPGTRVTVSP VL: EIVLTQSPDTLSASPGERVTLSCRASQSVGTKVAWYRHVRGQPPRLLIYGASTRAAGIPARFSGGGSGTNFTLIINNFQSEDFAEYLCQQYKSWWTFGQGTKVDNK | 5.62 |
| CH241 (antibody, V domains shown) VH: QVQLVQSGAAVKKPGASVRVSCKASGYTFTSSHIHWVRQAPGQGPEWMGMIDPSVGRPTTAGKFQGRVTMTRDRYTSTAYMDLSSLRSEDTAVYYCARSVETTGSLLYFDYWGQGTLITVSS VL: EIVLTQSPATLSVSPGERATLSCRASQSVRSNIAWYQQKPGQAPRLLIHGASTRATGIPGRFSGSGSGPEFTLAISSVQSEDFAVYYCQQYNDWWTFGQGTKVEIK | 8.03 |

Entry CH556 (antibody, V domains shown, also called CH235.11) VH: QVQLVQSGGTVKSPGTSVTLSCKTSGYNFIDYYIHWVRRAPGQRPELMGYIDPSHGRPDYEGKFRDRISLYRDTSTSVVYMDVRGLRLDDTALYYCVRGGGVEVSSNHYDHWGPGTMVFVSP VL: ETTLTQSPDTLSASPGERVTLSCRAAQSVGSQVAWFRHIRGQPPRLLISGASTRAAGVPARFSGSGSGTDFTLTISGMQSEDFAEYFCQQYHMWWTFGQGTRVDKN : reported LogAUC = ?
0.69

Now the same for CH235 (antibody, V domains shown, also called CH235_4A) VH: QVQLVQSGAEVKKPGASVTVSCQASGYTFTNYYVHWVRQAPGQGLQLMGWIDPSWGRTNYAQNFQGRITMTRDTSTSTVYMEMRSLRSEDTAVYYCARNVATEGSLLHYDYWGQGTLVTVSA VL: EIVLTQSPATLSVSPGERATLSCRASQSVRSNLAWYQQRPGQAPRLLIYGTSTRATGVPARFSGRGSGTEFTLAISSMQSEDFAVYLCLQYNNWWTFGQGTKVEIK
8.33

Now the same for CH491 (antibody, V domains shown, also called CH235.7; DH491) VH: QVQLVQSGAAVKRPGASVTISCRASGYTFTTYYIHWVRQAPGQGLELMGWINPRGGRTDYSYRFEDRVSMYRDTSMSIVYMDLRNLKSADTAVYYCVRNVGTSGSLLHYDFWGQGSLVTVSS VL: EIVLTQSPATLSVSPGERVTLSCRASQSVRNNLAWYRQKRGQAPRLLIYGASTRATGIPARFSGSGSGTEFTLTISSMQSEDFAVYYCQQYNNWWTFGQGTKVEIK
8.82

Now the same for CH235.13 (antibody, V domains shown) VH: QVQLVQSGGGVKRPGSTTTISCVASGYSFNDYYIHWVRQAPGQGLEVLGFIDPSNGRTNYAGAFGDRFSMYRDKSMETLYMDLRNLRSDDTAMYYCVRNVGTAGSLLHYDHWGTGSKIIVSS VL: EIVLTQSPATLSASPGERVTLTCRASRGVRNNVAWYQHNVGQSPRLLIYDASTRAPGIPARFSGSASGTEFTLAISSIQSEDFTLYYCHQYNNWWTFGQGTRVDIN
5.41
